Each recorded value in this set is attributed to ChEMBL document CHEMBL4765236.

Test system: Escherichia coli
protocol description: Antibacterial activity against Escherichia coli ATCC 35150 assessed as bacterial growth inhibition incubated for 18 to 24 hrs by microtiter broth dilution method
Format: functional
setup conditions: time 18-24 hrs
Documented MIC across a set of substances
measurement name: MIC

substance=H-WGEAFSAGVHRLANGGNG-NH2 measurement_name=MIC test_result="> 71.2 µM"
substance=H-WGRAFSAGVHRLARGGRG-NH2 measurement_name=MIC test_result="> 67 µM"
substance=H-WGRAFSAGVHRLANGGNG-NH2 measurement_name=MIC test_result="> 70.1 µM"

###

Test system: Staphylococcus aureus
protocol description: Antibacterial activity against Staphylococcus aureus ATCC 29213 assessed as bacterial growth inhibition incubated for 18 to 24 hrs in presence of 150 mM NaCl by microtiter broth dilution method (reference value: 0.43 to > 71.5 uM)
Format: functional
setup conditions: time 18-24 hrs
Documented MIC across a set of substances
measurement name: MIC

substance=H-WGRAFSRGVRRLARGGRG-NH2 test_result="> 63.5 µM"
substance=H-WGRAFSAGVHRLARGGRG-NH2 test_result="> 67 µM"
substance=H-WGRAFSAGVHRLANGGNG-NH2 test_result="> 70.1 µM"
substance=H-WGEAFSAGVHRLANGGNG-NH2 test_result="> 71.2 µM"
